- experiment description: ATG_M_32_CIS: Attagene CIS-FACTORIAL HepG2 Assay for M32 Transcription Factor (Internal Marker) (AID 2282949);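 also: background control marker of the multiplexed CIS panel rather than a real target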
- experimental context: HepG2 Attagene cis-factorial M32 reporter, mRNA; actives raise or lower the signal
Activity calls are given as the source filed them. The calls were made as follows: active = hit-call score of the fitted dose curve at least 0.9, where 1 is the maximum; inactive = score below 0.9.
test readout: outcome

Below, 5 molecules whose answers are already recorded.
Exercise: Which outcome value is on record for "NCC1(Cc2noc(=O)[nH]2)CCCCC1" ?
Solution: inactive

Exercise: Likewise for "FC(F)(F)C(F)(F)C(F)(F)C(F)(F)C(F)(F)C(F)(F)CCI" ?
Solution: inactive

Exercise: // repeat for "CCCCCCOCCO" and report
Solution: inactive

Exercise: Try this molecule next: "CCCCCCCCCCCCCCCC"
Solution: inactive

Exercise: What do we get for "COC(=O)c1ccc(O)cc1" ?
Solution: inactive

More entries:
Exercise: Fill in: outcome of "CCOC(=O)C(C)(C)Oc1ccc(Cl)cc1" is ___
Solution: inactive

----------
- Read-out: Transforming growth factor beta 1 (TGFb1), TGFB1 (gene 7040)
- experiment description: BSK_KF3CT_TGFb1: BioMAP Diversity Plus: KF3CT Assay for Transforming growth factor beta 1 (TGFb1) Biomarker Activity (AID 2283072)
- experimental context: primary human keratinocytes with fibroblasts; actives raise or lower the signal
Activity calls are given as the source filed them. The calls were made as follows: active = hit-call score of the fitted dose curve at least 0.9, where 1 is the maximum; inactive = score below 0.9.
test readout: AC50

Known results for molecules:
Exercise: // lookup AC50 for "CCCCCCOCCO"
Solution: inactive

Exercise: Same for "Cc1cccc(C)c1O"
Solution: inactive

Exercise: Likewise for "C[C@]12C=CC(=O)C=C1CC[C@@H]1[C@@H]2C(=O)C[C@@]2(C)[C@H]1CC[C@]2(O)C(=O)CO" ?
Solution: inactive

Exercise: Please do the same for "OC[C@@H](O)[C@@H](O)[C@H](O)[C@H](O)CO" as well.
Solution: inactive

Exercise: Now consider "CC1(C)NC(=O)NC1=O" .
Solution: inactive

***
Exercise: Endpoint output: AC50 of "NS(=O)(=O)c1cc2c(cc1Cl)NCNS2(=O)=O" . Value?
Solution: inactive

Exercise: Also need "CNCc1cc(F)ccc1Oc1ccc(Cl)c(Cl)c1" , thanks.
Solution: inactive

----------
- experiment description: CCTE_Simmons_MITO_viability: CellTiter-Glo Viability Assessment for CCTE's HepG2 Seahorse XF Respirometric Screening Assay [post-hoc], Simmons Lab (AID 2284007)
Inconclusive results are not listed. The source made the active and inactive calls. Rule for the calls: active = hit-call score of the fitted dose curve at least 0.9, where 1 is the maximum; inconclusive = response in the unintended direction; inactive = score below 0.9.
Pick one: active, inactive

See these solved cases before continuing.
Exercise: Assay outcome for "COc1cc(S(=O)(=O)O)c(C)cc1N=Nc1c(O)ccc2cc(S(=O)(=O)O)ccc12" : what was it?
Solution: active

Exercise: Try this compound next: CCCCC(CC)COC(=O)CC(C(=O)OCC(CC)CCCC)S(=O)(=O)O (centres undefined)
Solution: active

---
Exercise: Each compound tested received a call. Report the one for "CN[C@H]1CC[C@@H](c2ccc(Cl)c(Cl)c2)c2ccc(S(N)(=O)=O)cc21" .
Solution: inactive

Exercise: // repeat for "Cc1cccc(Nc2cc(Cl)nc(SCC(=O)O)n2)c1C" and report
Solution: inactive

----------
- experiment description: VALA_TUBIPS_Agonist_CellCount: Viability Assessment in the VALA Sciences human iPS-derived Endothelial Tubule Formation (TUBIPS) Agonism Assay (AID 2284338)
Results filed as inconclusive are left out. Activity calls are given as the source filed them. How the source made its calls: active means hit-call score of the fitted dose curve at least 0.9, where 1 is the maximum; inconclusive means response in the unintended direction; inactive means score below 0.9.
test readout: AC50

Known results for molecules:
Exercise: Suppose we examine the molecule "COC(=O)c1ccc(O)cc1" ; what AC50 value has been reported?
Solution: inactive

Exercise: Again, but for "Cc1cc(NC(=O)C(=O)O)cc(C)c1Oc1ccc(O)c2c1CCC2"
Solution: inactive

Exercise: Try "OC[C@@H](O)[C@@H](O)[C@H](O)[C@H](O)CO" next.
Solution: inactive

Exercise: Note, next up: "CCCc1cc(=O)[nH]c(=S)[nH]1"
Solution: inactive

Exercise: Consider next the molecule "Oc1ccc2ccccc2c1N=Nc1ccccc1" in the same way.
Solution: 31.9 µM (active)

We now examine a further molecule.
Exercise: # input molecule: CCCCC(CC)COC(=O)CC(C(=O)OCC(CC)CCCC)S(=O)(=O)O (stereo unspecified) ; wanted: its AC50
Solution: 77.8 µM (active)

These data points were gathered from PubChem BioAssay (EPA / NIEHS).
